OR98a response (VUAA1-normalized) at 100 μM values by entry
# system: Drosophila OR98a (Drosophila melanogaster, UniProt Q9VAZ3)
# Construct: expressed in transfected cells
# Sequence (Q9VAZ3 1-397): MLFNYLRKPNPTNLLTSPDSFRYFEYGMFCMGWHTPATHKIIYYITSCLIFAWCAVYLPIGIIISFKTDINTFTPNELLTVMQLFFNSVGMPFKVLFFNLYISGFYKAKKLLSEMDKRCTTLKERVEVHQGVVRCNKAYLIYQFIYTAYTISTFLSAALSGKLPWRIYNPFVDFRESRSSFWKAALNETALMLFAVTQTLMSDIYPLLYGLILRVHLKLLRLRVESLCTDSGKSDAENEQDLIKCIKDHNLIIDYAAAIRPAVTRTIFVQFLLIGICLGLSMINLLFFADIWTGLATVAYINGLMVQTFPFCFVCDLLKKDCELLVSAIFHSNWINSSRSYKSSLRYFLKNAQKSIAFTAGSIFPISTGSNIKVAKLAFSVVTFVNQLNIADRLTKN
# Sequence (Q9VNB5 1-486 partner): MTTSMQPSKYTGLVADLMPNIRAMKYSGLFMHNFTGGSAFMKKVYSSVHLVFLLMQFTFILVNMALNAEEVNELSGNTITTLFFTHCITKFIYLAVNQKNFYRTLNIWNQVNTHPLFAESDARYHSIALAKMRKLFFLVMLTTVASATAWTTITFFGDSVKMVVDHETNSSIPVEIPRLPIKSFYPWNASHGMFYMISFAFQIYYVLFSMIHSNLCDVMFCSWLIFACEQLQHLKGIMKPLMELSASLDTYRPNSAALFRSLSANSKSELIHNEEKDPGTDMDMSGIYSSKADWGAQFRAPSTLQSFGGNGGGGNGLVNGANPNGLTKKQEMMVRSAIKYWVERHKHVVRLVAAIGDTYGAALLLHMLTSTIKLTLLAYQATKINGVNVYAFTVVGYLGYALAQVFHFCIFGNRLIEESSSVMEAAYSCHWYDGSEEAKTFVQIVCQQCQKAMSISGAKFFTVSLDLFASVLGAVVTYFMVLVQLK
# test summary: Calcium ion fluorescence (GCaMP6) assay, OR98a stable HEK293 cell line
# Format: cell-based
# stated conditions: OR98a cell line, VOC concentration 100 μM
Reply with the value as a number alone.

Below are worked cases with known answers.
[[record]]
molecule = "Cc1ccccc1"
numeric_readout = 0.00

[[record]]
molecule = "CCCCCCCCCCC"
numeric_readout = 0.08

[[record]]
molecule = "Cc1ccc(C)cc1"
numeric_readout = 0.00

[[record]]
molecule = "COC(=O)c1ccccc1O [methyl salicylate]"
numeric_readout = 0.00

[[record]]
molecule = "CCCCCCCCCCCCCC"
numeric_readout = 0.10

[[record]]
molecule = "Cc1cccc(C)c1"
numeric_readout = 0.00


Which OR98a response (VUAA1-normalized) at 100 μM value is on record for CCCCCOC(C)=O [pentyl acetate] ? 0.14

Which OR98a response (VUAA1-normalized) at 100 μM value is on record for Cc1ccc(C(C)C)cc1 ? 0.00

Which OR98a response (VUAA1-normalized) at 100 μM value is on record for CC1=CCC23CC1C(C)(C)C2CCC3C (centres unmarked) ? 0.05

Which OR98a response (VUAA1-normalized) at 100 μM value is on record for CC/C=C\CCOC(C)=O [Z-3-hexenyl acetate] ? 0.10

Which OR98a response (VUAA1-normalized) at 100 μM value is on record for C=C1CCC2(C(C)C)CC12 (centres unmarked) ? 0.00

Which OR98a response (VUAA1-normalized) at 100 μM value is on record for OCCc1ccccc1 ? 0.12

Which OR98a response (VUAA1-normalized) at 100 μM value is on record for CCCCCCCCC=O ? 0.055

Which OR98a response (VUAA1-normalized) at 100 μM value is on record for C=Cc1ccccc1 ? 0.00
